List of cytotoxicity at 70.5 h values.
experiment: Human HepG2 cell viability assay in 384 well format; type: toxicity, cell-based; parameters: dose 125 nL, time 70.5 hour; concentration not given beside the values; settings: HepG2 cells, read-out: Inhibition
Express it in %; write the number only.

Example entries begin here.
{"columns": ["Molecule", "Data Value"],
 "data": [
  ["CCN1CCc2c(sc3c2C(=O)NC(/C=C/c2ccco2)N3)C1 (stereo not drawn)", 43.7],
  ["CNC(=O)[C@@]12CCO[C@@H]1CCN(Cc1scnc1C)C2", 4.42],
  ["CCO[C@H]1C[C@@H](O)C12CCN(C1Cc3ccccc3C1)CC2", -10.5],
  ["CNc1nccnc1C1CN(C(=O)c2cc[nH]n2)CCO1 (stereo not drawn)", -4.96],
  ["Cc1nc(CNc2ccccc2CCC(F)(F)F)cs1", -9.96]
]}

Prompt: Which cytotoxicity at 70.5 h value belongs to Cc1ccc(OCc2occc2C(=O)N2CCCCC(N)C2)cc1 (stereo not drawn) ?
Completion: -2.2

Prompt: Same for Cc1cnn(CC2CCCN2C(=O)c2cn(-c3ccccc3)nc2C)c1 (stereo not drawn)
Completion: 6.33

Prompt: Likewise for CC(C)c1nn(C)c(N(C)C)c1CNC(C)c1ccc2c(c1)OCO2 (stereo not drawn) ?
Completion: 20

Prompt: Now give it for COC(C)c1cccc(NC(=O)N(CCC#N)Cc2ccccn2)c1 (stereo not drawn) too.
Completion: -6.49

====

assay: Human HepG2 cell viability assay in 384 well format; assay type: toxicity, cell-based; parameters: dose 125 nL, time 70.5 hour; concentration not given beside the values; details: HepG2 cells, read-out: Inhibition
// reported cytotoxicity at 70.5 h for each item listed
Give just the number in %; leave the unit off.

# annotated cases, reported cytotoxicity at 70.5 h shown
{"columns": ["Compound", "Measurement Units", "cytotoxicity at 70.5 h"],
 "data": [
  ["CC(C)(C)CN1CC(COc2ccccc2)Oc2ccncc2S1(=O)=O (configuration not stated)", "%", 10.8],
  ["c1csc(-c2noc(COCC3CCCO3)n2)c1 (configuration not stated)", "%", 1.87],
  ["COc1ccc(CNC(=O)C2(C#N)CCCC2)cc1", "%", 12.6],
  ["CCOCC(=O)Nc1cccnc1-n1ccnc1C", "%", -6.13],
  ["CC(C)c1nn(C)c(N(C)C)c1CNCCC(=O)NC1CCCC1", "%", 26.8]
]}

Prompt: // cytotoxicity at 70.5 h lookup, key: CN(C)C(=O)CN1CCN(Cc2coc(-c3cccc(F)c3)n2)CC1
Completion: -11.2

Prompt: And CCCNC1(c2ccc(Cl)cc2)CCOCC1 ?
Completion: 6.67

Prompt: O=C(N[C@@H]1CN(Cc2ccccc2)C[C@@H]2CCCO[C@@H]21)C1CC1 ?
Completion: -1.76

Prompt: What do you get for CC(C)NC(=O)Nc1cccc2c1CCN(S(C)(=O)=O)C2 ?
Completion: -1.67

Prompt: Then this compound: Cc1ncc2c(n1)CN(CC(=O)Nc1nnc(C)s1)CC2
Completion: -8.66

Prompt: Try this compound too: CC(C)N(C)CCCNC(=O)c1cnn(C(C)C)c1C(F)(F)F
Completion: 13.9

Prompt: Follow-up item: c1cc(-c2nc3c(c(NCCc4c[nH]cn4)n2)CCNCC3)ccn1
Completion: 5.61

Prompt: Next entry: CN(Cc1nnc(C2CC2)n1C)C1CCN(CCc2ccccc2)C1 (configuration not stated)
Completion: -3.03

Prompt: Also CC(NC1(CNC(=O)CC(C)(C)C)CCOCC1)c1ccccc1 (configuration not stated) ?
Completion: -7.83

Prompt: Here is the next compound: CCS(=O)(=O)CC(C)N(C)C(=O)NCCc1cccc(F)c1F (configuration not stated)
Completion: -5.89

Prompt: Also check Cc1cccc(CN2C(=O)CO[C@@H]3CN(Cc4cnn(C)c4)C[C@H]32)c1
Completion: 4.73

Prompt: For O=C(NCCc1ccccn1)c1n[nH]c2c1CCC2 then?
Completion: -5.6

Prompt: Would you mind doing CC(C1CC1)N(C)C(=O)c1ccc(-n2ncc(C#N)c2N)cc1 (configuration not stated) as well?
Completion: -6.01

Prompt: Then what about the compound COc1ccc(C)cc1CN(CC(N)=O)C(C)C ?
Completion: -3.29

Prompt: Now consider COCCCNC(=O)Nc1cc(-c2ccccc2C)nn1CCO .
Completion: -5.71

====

assay: Human HepG2 cell viability assay in 384 well format; type: toxicity, cell-based; design: dose 125 nL, time 70.5 hour; concentration not given beside the values; conditions: HepG2 cells, read-out: Inhibition
Quantity Name: cytotoxicity at 70.5 h
// unit must come after the numeric part

{"columns": ["Compound", "Data Value"],
 "data": [
  ["Cc1cc(C(=O)N2CCN(C(=O)Cc3ccccn3)CC2)c(C)s1", "0.259%"],
  ["O=C(NCCOCC(F)(F)F)c1ccc(-c2ccccc2)[nH]c1=O", "-7.3%"],
  ["CC(Cn1cccn1)NC(=O)Nc1cccnc1 (stereo unspecified)", "-8.71%"],
  ["Cn1c(NCCC(=O)N2CCCC2)c(C#N)c(=O)n(C)c1=O", "3.58%"]
]}

Prompt: Name the recorded cytotoxicity at 70.5 h for CCS(=O)(=O)N1CCN(CC(F)(F)F)CC1 .
Completion: -5.53%

Prompt: Now the same for CN1CCN([C@@H]2CN(C(=O)c3cc4ccc(F)cc4[nH]3)C[C@H]2O)CC1
Completion: -3.6%

====

experiment: Human HepG2 cell viability assay in 384 well format; format: toxicity, cell-based; set-up: dose 125 nL, time 70.5 hour; concentration not given beside the values; conditions: HepG2 cells, read-out: Inhibition
Quantity Name: cytotoxicity at 70.5 h (%)
Give your result in % as a bare value.

See these solved cases before continuing.
{"columns": ["Molecule", "Data Value"],
 "data": [
  ["CC(C)c1nnc2ccc(N3CCC(C(=O)O)CC3)nn12", -25.9],
  ["CC(=O)N1CCC(C(=O)NCc2cc[nH]n2)(c2ccccc2)CC1", -5.74],
  ["CCC(=O)N1CCCc2c(cnn2C)C1", 23.9],
  ["CCOc1ccc(NC(=O)c2cccc(OC)c2OC)cc1", -1.48],
  ["CC(C)OCCCN(CC(=O)N1CCNCC1)C(=O)c1cccc(Cl)c1", -18.5],
  ["COc1cc(N2CCC3(CC2)CNC(=O)CO3)ncn1", -8.43]
]}

Prompt: Find the recorded cytotoxicity at 70.5 h belonging to O=C1CCC2(CCCN(C(=O)c3ccc[nH]3)C2)CN1Cc1cccnc1 (configuration not stated) and report it.
Completion: -3.97

Prompt: Next entry: CC1CCN(S(=O)(=O)c2cccn(CC(=O)NC(C)(C)C)c2=O)CC1
Completion: -9.49

====

assay: Human HepG2 cell viability assay in 384 well format; format: toxicity, cell-based; parameters: dose 125 nL, time 70.5 hour; concentration not given beside the values; conditions: HepG2 cells, read-out: Inhibition
Quantity Name: cytotoxicity at 70.5 h (%)
Numbers only; they are read as %.

Example entries and their recorded answers appear below.
{"columns": ["Molecule", "Measurement Units", "Data Value"],
 "data": [
  ["COc1cc(CNC(=O)Nc2nnc(C(F)(F)F)s2)ccc1O", "%", 2.56],
  ["CCn1cc(CN2CCC(C3CCN(C)CC3)CC2)cc1C#N", "%", -1.33],
  ["Cn1nc(CNC(=O)C2CCCCC2)cc1C1CC1", "%", 33],
  ["O=C(C1CCOC1)N1C[C@H]2CN(Cc3nccs3)C[C@H]2C1 (stereo partly specified)", "%", -2.75],
  ["Cn1cc(S(=O)(=O)NCCc2nnc3ccccn23)cn1", "%", -4.25]
]}

Prompt: Could you tell me which cytotoxicity at 70.5 h is on file for O=C(C1CCCO1)N1CCC(c2nc(-c3ccccc3)n[nH]2)CC1 (stereo unspecified) ?
Completion: 1.35

Prompt: And O=C(NCc1nnc2n1CCC2)c1cn(-c2cccc(Br)c2)nn1 ?
Completion: -6.53

Prompt: Another: Cc1nc(C)n(CCNS(=O)(=O)NCc2ccccc2)n1
Completion: -15.5

Prompt: What would you report for COc1cccc(C(C)N2CCN(S(=O)(=O)c3ccccc3)CC2)c1 (stereo unspecified) ?
Completion: -2.4

Prompt: Queued: O=S1(=O)NCC2(CCN(c3ncccn3)CC2)COc2ccccc21
Completion: 47.5

Prompt: CNC(=O)[C@@H]1CCO[C@@H]2CCN(CCc3ccccc3)C[C@H]21 ?
Completion: -3.11

====

assay: Human HepG2 cell viability assay in 384 well format; format: toxicity, cell-based; set-up: dose 125 nL, time 70.5 hour; concentration not given beside the values; conditions: HepG2 cells, read-out: Inhibition
List of cytotoxicity at 70.5 h values.
State the answer as a number, implicitly in %.

{"columns": ["Compound", "Measurement Units", "cytotoxicity at 70.5 h"],
 "data": [
  ["CSCC(CCO)NC(=O)c1cccc(C)c1Cl (stereo unspecified)", "%", -13.9],
  ["CN(CCc1ccccc1)Cc1c(C2CCNCC2)[nH]c2ncccc12", "%", -6.11],
  ["CCS(=O)(=O)c1cccc(C(=O)Nc2cccc3c2C(=O)N(C)C3=O)c1", "%", 31],
  ["Cc1nnc(NCC2(c3ccccc3)CC2)c(C#N)c1C", "%", -0.882],
  ["Cc1noc(C2CN(S(=O)(=O)C3CC3)Cc3ccnn3C2)n1 (stereo unspecified)", "%", 10.2]
]}

Next:
Prompt: Any idea what its cytotoxicity at 70.5 h is? The compound is Cc1nnc([C@@H]2CC[C@@H]3[C@@H](CCN3S(C)(=O)=O)O2)o1
Completion: -10.9

Where do these numbers come from? They come from ChEMBL document CHEMBL3507680.
